Cited source: paper PMC8036666

# assay_overview: in vitro
# experimental_setup: human, 25% (v/v) normal human serum
# Description: Serum stability of peptides B7 and C7 was tested in normal human serum (Sigma-Aldrich, Steinheim, Germany) according to the modified Jenssen and Aspmo protocol. […] The influence of serum matrix on calibration curves was eliminated by the preparation of a series of vials with residual substances from serum. […] Standards of the analyzed compounds were prepared in demineralized water in concentration ranging from 1 to 15 ppm. […]
Would you kindly list remaining at 3 h, 50 µg/mL for each of these molecules?
Give bare numbers, in %.

• CCCCCCC(CCCC)C(=O)N[C@@H](CCCNC(=N)N)C(=O)N[C@@H](CCCNC(=N)N)C(=O)N[C@@H](CSSC[C@H](NC(=O)[C@H](CCCNC(=N)N)NC(=O)[C@H](CCCNC(=N)N)NC(=O)C(CCCC)CCCCCC)C(N)=O)C(N)=O (some centres unmarked) [Compound C7] = 79.2

Briefly, remaining at 3 h, 50 µg/mL measured for CCCCCCC(CCCC)C(=O)N[C@@H](CCCNC(=N)N)C(=O)N[C@@H](CCCNC(=N)N)C(=O)NCCCC[C@H](NC(=O)[C@H](CCCNC(=N)N)NC(=O)[C@H](CCCNC(=N)N)NC(=O)C(CCCC)CCCCCC)C(N)=O (some centres unmarked) [Compound B7] : 83.1

* * *

# System: Klebsiella aerogenes ATCC 13048
# experimental_setup: ATCC 13048, 24 h
attribute_measured: MIC Klebsiella aerogenes ATCC 13048 (µg/mL)
Give bare numbers, in µg/mL.

Briefly, MIC Klebsiella aerogenes ATCC 13048 measured for CCCCCCC(CCCC)C(=O)N[C@@H](CCCNC(=N)N)C(=O)N[C@@H](CCCNC(=N)N)C(=O)N[C@@H](CSSC[C@H](NC(=O)[C@H](CCCNC(=N)N)NC(=O)[C@H](CCCNC(=N)N)NC(=O)C(CCCC)CCCCCC)C(N)=O)C(N)=O (some centres unmarked) : 16

* * *

Would you kindly list Adjusted Retention Time for each of these compounds?
# assay_overview: Lipopeptide hydrophobicity by RP-HPLC (adjusted retention time)
# Format: physicochemical
# experimental_setup: RP-HPLC, 20–65% acetonitrile over 30 min, indicator of hydrophobicity
Where a SMILES comes first, the peptide text is derived from it. Bridges are numbered along the chain shown (N, C = ends). Roman numbers before positions name the chains, in order. The star is where a group is joined. Myristoyl = CCCCCCCCCCCCCC(=O)*; Lauroyl = CCCCCCCCCCCC(=O)*; Octanoyl = CCCCCCCC(=O)*
One number for each entry, in min.

• CCCCCCCCCCCC(=O)N[C@@H](CCCNC(=N)N)C(=O)N[C@@H](CCCNC(=N)N)C(=O)N[C@@H](CSSC[C@H](NC(=O)[C@H](CCCNC(=N)N)NC(=O)[C@H](CCCNC(=N)N)NC(=O)CCCCCCCCCCC)C(N)=O)C(N)=O [Compound C3] (I: Lauroyl-Arg-Arg-Cys-NH2 / II: Lauroyl-Arg-Arg-Cys-NH2; disulfide I:3-II:3) = 19.24
• CCCCCCC(CCCC)C(=O)N[C@@H](CCCNC(=N)N)C(=O)N[C@@H](CCCNC(=N)N)C(=O)N[C@@H](CSSC[C@H](NC(=O)[C@H](CCCNC(=N)N)NC(=O)[C@H](CCCNC(=N)N)NC(=O)C(CCCC)CCCCCC)C(N)=O)C(N)=O (stereo partly shown) = 14.83

# per-item lookup of Adjusted Retention Time; items listed below
1. CCCCCCCCCCCCCC(=O)N[C@@H](CCCNC(=N)N)C(=O)N[C@@H](CCCNC(=N)N)C(N)=O [Compound A4, C14-RR-NH2] (Myristoyl-Arg-Arg-NH2)
2. CCCCCCCC(=O)N[C@@H](Cc1ccccc1)C(=O)N[C@@H](CCCNC(=N)N)C(=O)N[C@@H](CCCNC(=N)N)C(=O)N[C@@H](CSSC[C@H](NC(=O)[C@H](CCCNC(=N)N)NC(=O)[C@H](CCCNC(=N)N)NC(=O)[C@H](Cc1ccccc1)NC(=O)CCCCCCC)C(N)=O)C(N)=O [Compound C5] (I: Octanoyl-FRRC-NH2 / II: Octanoyl-FRRC-NH2; disulfide I:4-II:4)

16.31
15.42
